Hello, the source for this data is ChEMBL document CHEMBL1154198, in case you need it.

Tested on: Plasmodium falciparum
Experiment: ST_JUDE: Plasmodium falciparum K1 EC50 (uM) as measured by SYBR green dye
Type: functional, organism-based
EC50 less than 4 µM is satisfied; EC50 greater than or equal to 4 µM is not satisfied.

Compound | Class
O=C1CC(c2ccc(F)cc2F)C2=C(CC(c3ccc(F)cc3)CC2=O)N1 (configuration not stated) | satisfied
CN1CCN(c2cc(N3CCN(C)CC3)c([N+](=O)[O-])cc2C2Nc3ccc4ccccc4c3C3=C2C(=O)CC(C)(C)C3)CC1 (configuration not stated) | not satisfied
CCc1cc(Br)ccc1NC(=O)Nc1ccc([N+](=O)[O-])cc1 | not satisfied

Task item: Quick check: does Cc1ccc(S(=O)(=O)NCC(c2cccnc2)N2CCN(c3ccc(F)cc3)CC2)cc1 (configuration not stated) have EC50 under 4 µM?
Reply: not satisfied

Task item: Quick check: does "CCOc1cc(-c2nc(-c3ccc(OC)cc3)c(-c3ccccc3)[nH]2)ccc1O" have EC50 under 4 µM?
Reply: satisfied

* * *

System: Plasmodium falciparum
Experiment: ST_JUDE: Plasmodium falciparum 3D7 EC50 (uM) as measured by SYBR green dye
Type: functional, organism-based
pEC50: −log10 of the molar value.
Entries and their pEC50

Input "O=C(CSc1ccccc1[N+](=O)[O-])Nc1cccc(Br)c1" . Output pEC50: < 4.82

* * *

Tested on: Plasmodium falciparum
Assay: ST_JUDE: Plasmodium falciparum 3D7 EC50 (uM) as measured by SYBR green dye
Format: functional, organism-based
Outcome measure: log10 EC50 (log10 of the value in µM)
// stored as log10 of EC50 expressed in µM

Study these solved cases before continuing.
Compound | log10 EC50
CCc1cccc2c(C#N)cn(Cc3ccc(Br)cc3)c12 | 0.56
Cc1cc(C)cc(Nc2nc(NCC3CCCO3)c3ccccc3n2)c1 (configuration not stated) | 0.20
Cc1ccccc1-c1cnc(-c2cccnc2)nc1C1CCN(C(=O)CCCc2cccs2)CC1 | 0.76

Input "CCN(CC)c1ccc(/C=C/c2ccc3ccc(OC)cc3[n+]2CC)cc1" . Output log10 EC50: 0.05

Input "CCN(CC)c1cc(C)c2cc(NC(=O)c3ccc(OC)c(OC)c3)ccc2n1" . Output log10 EC50: 0.36

Input "COc1ccc(CCNC(=S)Nc2ccccc2SC)cc1OC" . Output log10 EC50: 0.72

Input "O=C(CCCCCN1C(=O)c2cccc3cccc(c23)C1=O)NO" . Output log10 EC50: 0.58

Input NNC(=O)CNC(c1ccccc1)c1cc(Br)ccc1NC(=O)c1ccccc1Br (configuration not stated) . Output log10 EC50: 0.28

Input "Cc1cc(N2CCC(N(C)C3CCCC3)CC2)nc2cc(O)ccc12" . Output log10 EC50: 0.19

Input "COc1ccc2nc(C)cc(Nc3cccc(Cl)c3)c2c1" . Output log10 EC50: 0.09

Input "COc1ccc(Nc2cc(C)c3ccc(O)cc3n2)cc1" . Output log10 EC50: -0.26

* * *

Assay: ST_JUDE: Cytotoxicity using luciferase to measure ATP as an indicator of the viability of human foreskin fibroblast cells (BJ)
Format: toxicity, cell-based
Outcome measure: EC50

Study these solved cases before continuing.
Compound | EC50
CCOC(=O)c1cccc(NC(=O)CC2C(=O)N(c3ccc(F)cc3)C(=O)N2CCC(C)C)c1 (configuration not stated) | > 43.4 µM
Cc1ccc(N2C(N)=NC(N)=NC2(C)C)cc1 | > 34.9 µM
CCCO/C(O)=C1\C(C)=NC2=C(C(=O)CC(c3ccc(OC)c(OC)c3)C2)C1c1ccccc1C (configuration not stated) | > 41.3 µM
CCOC(=O)c1cnc2c(OC)cccc2c1Nc1ccc(OC)c(OC)c1 | > 45.1 µM
O=C1C(Nc2ccc(Br)cc2)=C(n2nnc3ccccc32)C(=O)c2ccccc21 | > 24.8 µM

Input Cc1ccc(C)c(NC(=O)CC2C(=O)N(c3ccccc3)C(=S)N2Cc2ccco2)c1 (configuration not stated) . Output EC50: > 44.1 µM

Input "Cc1cccc(N2CCN(Cc3cc(Br)ccc3O)CC2)c1C" . Output EC50: > 27.9 µM

Input "Cc1ccc(C)c(N2CCN(Cc3cc(Cl)ccc3O)CC2)c1" . Output EC50: > 35.9 µM

Input "CCCCCOc1ccc(N(C(C)=O)C2=C(N3CCOCC3)C(=O)c3ccccc3C2=O)cc1" . Output EC50: > 36.2 µM

Input CC(=O)c1cccc(NC(=O)C2c3ccccc3C(=O)N(CC(C)C)C2c2cccs2)c1 (configuration not stated) . Output EC50: > 43.2 µM

Input "CN1C(=O)/C(=C\c2ccccc2Cl)Sc2ccc(C(=O)NC3CCN(Cc4ccccc4)CC3)cc21" . Output EC50: > 42.5 µM

Input "CCOc1ccc(N(C(C)=O)C2=C(N3CCOCC3)C(=O)c3ccccc3C2=O)cc1" . Output EC50: 9.6 µM

Input "COC(=O)C1=CNC=C(C(=O)OC)C1c1ccc(Cl)c(Cl)c1" . Output EC50: > 45.8 µM

Input CCOC(=O)C1=C(C)N=c2s/c(=C\c3cc(Cl)ccc3O)c(=O)n2C1c1ccc(N(C)C)cc1 (configuration not stated) . Output EC50: > 18.2 µM

Input "C#CC[n+]1ccn2c(C)ccc2c1CC" . Output EC50: > 49.8 µM

Input "CCOc1ccc(Nc2nc(NCc3ccccc3)c3ccccc3n2)cc1" . Output EC50: 8.41 µM

Input CC(C)CN1C(=O)c2ccccc2C(C(=O)Nc2cccc(C#N)c2)C1c1cccs1 (configuration not stated) . Output EC50: > 46.8 µM

Input CCN(CC)CCN1C(=O)c2ccccc2NC1c1ccc(Cl)cc1 (configuration not stated) . Output EC50: > 42.9 µM

* * *

System: Plasmodium falciparum
Test: ST_JUDE: Plasmodium falciparum K1 EC50 (uM) as measured by SYBR green dye
Format: functional, organism-based
pEC50: −log10 of the molar value.
Outcome measure: pEC50

Compound | pEC50
CCCCn1c(C)c(C(=O)OCC)c2cc(OC(C)=O)c(Br)cc21 | < 4.82
CC(C)(C)C(=O)Cn1ccc(=N)c2ccccc21 | < 4.82
COc1ccc(-c2nn(C)c3sc(C(=O)Nc4cccc(C(F)(F)F)c4)cc23)cc1OC | < 4.82
CC(=O)CCc1ccc(OCCN2CCOCC2)cc1 | < 4.82
O=C(CN1CCN(C2CCCC2)CC1)Nc1ccc([N+](=O)[O-])cc1C(=O)Nc1ccccc1F | < 4.82

// pEC50 (Plasmodium falciparum) for "CCCCc1ccc(NC(=O)Cc2csc(NC(=O)c3cc(OC)cc(OC)c3)n2)cc1" = < 4.82

// pEC50 (Plasmodium falciparum) for Cc1ccc(CN2CCN(Cc3c(C)nn(C)c3Cl)CC2CCO)cc1 (centres undefined) = < 4.82

// pEC50 (Plasmodium falciparum) for "CC(C)(C)c1cc(C(=O)Cn2c(NCCO)nc3ccccc32)cc(C(C)(C)C)c1O" = < 4.82

// pEC50 (Plasmodium falciparum) for "CCS(=O)(=O)c1ccc(OC)c(/N=N/c2ccc(O)c3ncccc23)c1" = < 4.82

// pEC50 (Plasmodium falciparum) for "CC1CCN(CCCNc2cc(NCCO)c([N+](=O)[O-])c3nonc23)CC1" = < 4.82

// pEC50 (Plasmodium falciparum) for "CCc1ccc(Oc2c(C(F)(F)F)oc3c(CN4CCOCC4)c(O)ccc3c2=O)cc1" = < 4.82

// pEC50 (Plasmodium falciparum) for "COc1ccc(NC(=O)CSc2nc(-c3ccccc3Cl)ns2)c(OC)c1" = 5.34

* * *

Tested on: Plasmodium falciparum
Assay: ST_JUDE: Plasmodium falciparum K1 EC50 (uM) as measured by SYBR green dye
Assay type: functional, organism-based
Outcome measure: pEC50
Lab note: report pEC50 as minus log10 of the concentration in molar units, number only.

Study these solved cases before continuing.
Compound | pEC50
O=C(c1cccc(F)c1)N(Cc1cccnc1)c1nc2ccc(F)cc2s1 | 5.37
COc1ccc(CCNC(=S)Nc2ccccc2C)cc1OC | 5.40
Nc1ccc(-c2nc3cc(Oc4ccc5[nH]c(-c6ccc(N)cc6)nc5c4)ccc3[nH]2)cc1 | 5.77
O=C(NNc1nc2ccc(F)cc2s1)c1ccc(F)cc1 | 5.15

Input O=C(Nc1ccc(F)cc1)C1c2ccccc2C(=O)N(C2CCCC2)C1c1cccs1 (configuration not stated) . Output pEC50: 6.01

Input "Fc1ccc(Nc2nc(NCCN3CCOCC3)nc3c2cnn3-c2ccccc2)cc1" . Output pEC50: 5.17

* * *

Test system: Plasmodium falciparum
Test: ST_JUDE: Plasmodium falciparum 3D7 EC50 (uM) as measured by SYBR green dye
Assay type: functional, organism-based
Outcome measure: EC50

Compound | Subject of test | EC50
Cc1ccc2nc3c(cc(C(=O)NC(C)c4ccccc4)c(=N)n3CC3CCCO3)c(=O)n2c1 (stereo unspecified) | Plasmodium falciparum | > 15 µM
O=C(Nc1ccc(Cl)cc1C(=O)Nc1cccc(C(F)(F)F)c1)c1ccco1 | Plasmodium falciparum | > 15 µM
O=C1CC(O)(C(F)(F)C(F)(F)OC(F)(F)F)Oc2ccc(Cl)cc21 (stereo unspecified) | Plasmodium falciparum | > 15 µM
COc1ccc(OC)c(NC(=O)C2c3ccccc3C(=O)N(C)C2c2cccs2)c1 (stereo unspecified) | Plasmodium falciparum | > 15 µM
COc1ccc(OC)c2sc(N(Cc3cccnc3)C(=O)c3cccc(Cl)c3)nc12 | Plasmodium falciparum | > 15 µM

Input "Cc1ccc(OCCCOc2cccc3ccc(C)nc23)c([N+](=O)[O-])c1" . Output EC50: > 15 µM

Input "CCC(=O)N(Cc1ccccn1)c1nc2ccccc2s1" . Output EC50: > 15 µM

Input "O=C(Nc1ccc(Cl)c(Cl)c1)c1ccc(-c2ccccc2)cc1" . Output EC50: > 15 µM

Input "CC1CCN(C(=O)c2cc(COc3ccc(F)cc3F)on2)CC1" . Output EC50: > 15 µM

Input "CCCN1CCC(NC(=S)Nc2ccc([N+](=O)[O-])cc2)CC1" . Output EC50: > 15 µM

Input CO/C(O)=C1\C(C)=NC2=C(C(=O)CC(c3ccccc3Cl)C2)C1c1ccc(OC)c(OC)c1 (stereo unspecified) . Output EC50: > 15 µM
